# Tested on: NIH3T3
# experiment.summary: Cytotoxic Profiling of Annotated Libraries Using Quantitative High-Throughput Screening (AID 1296008); further: on the % scale 0 is the no-effect control and ±100 the full control effect
# protocol.conditions: Five cell lines viability, CellTiter-Glo ATP luminescence, 48-72 h; stronger effect = lower value
Inconclusive results are not listed.

- compound: "CC1CCC2(C)C(CC(O)C(O)C23CO3)C1(C)CCC1=CC(O)OC1=O (stereo not given)"
  display.unit: "%"
  max response: -4.84
- compound: "C/C(=C/CO)CC[C@@H]1[C@@]2(C)CCC[C@](C)(C(=O)O)C2CC[C@@]1(C)O (stereo not given in full)"
  display.unit: "%"
  max response: -1.08
- compound: "O=C1NC(Cc2ccc(O)cc2)C(=O)N2CCCC12 (stereo not given)"
  display.unit: "%"
  max response: -0.188
- compound: "CC(C)CC(=O)OC[C@H]1O[C@@](COC(=O)CC(C)C)(O[C@H]2O[C@H](CO)[C@@H](O)[C@H](O)[C@H]2OC(=O)CC(C)C)[C@@H](OC(=O)CC(C)C)[C@@H]1O"
  display.unit: "%"
  max response: 0.671
- compound: "C[C@@]12C[C@]3(O)O[C@H](O1)[C@]1(COC(=O)c4ccccc4)[C@H]3C[C@@]12O[C@@H]1O[C@H](COC(=O)c2ccccc2)[C@@H](O)[C@H](O)[C@H]1O"
  display.unit: "%"
  max response: 1.22
- compound: "C/C=C/C=C/C=C/C(=O)O[C@@H]1[C@@H](OC)C2=C(C(=O)N(C(C)C(=O)O)C2)[C@@]2(C)CCCC(C)(C)[C@H]12 (stereo not given in full)"
  display.unit: "%"
  max response: 0.76
- compound: "CC(C)C(C#N)O[C@@H]1O[C@H](CO[C@@H]2OC[C@](O)(CO)[C@H]2O)[C@@H](O)[C@H](O)[C@H]1O (stereo not given in full)"
  display.unit: "%"
  max response: 3.22
- compound: "CC(C)C1(O[C@@H]2O[C@H](CO)[C@@H](O)[C@H](O)[C@H]2O)CC=C(CO)CC1 (stereo not given in full)"
  display.unit: "%"
  max response: 0.631
- compound: "O=C(CCO[C@@H]1O[C@H](CO)[C@@H](O)[C@H](O)[C@H]1O)c1ccc(O)cc1"
  display.unit: "%"
  max response: -1.69
- compound: "CC1(C)CC[C@]2(C(=O)O)CC[C@]3(C)C(=CCC4[C@@]5(C)C[C@@H](O)[C@H](O)C(C)(C)C5CC[C@]43C)[C@@H]2[C@@H]1O (stereo not given in full)"
  display.unit: "%"
  max response: -12.3
- compound: "C[C@H]1[C@H](C)CC[C@]2(C(=O)O)CC[C@]3(C)C(=CC[C@@H]4[C@@]5(C)C[C@@H](O)[C@H](O)[C@@](C)(CO)[C@@H]5CC[C@]43C)[C@H]12"
  display.unit: "%"
  max response: 4.85
- compound: "CCOc1nc2cccc(C(=O)O)c2n1Cc1ccc(-c2ccccc2-c2noc(=O)[nH]2)cc1"
  display.unit: "%"
  max response: -8.35
- compound: "CC1=CC(=O)C2C(C)(C)CC(O)CC2(C)C1CO (stereo not given)"
  display.unit: "%"
  max response: 2.39
- compound: "C/C(=C\\CO)CC/C=C(\\C)C(=O)O[C@H]1[C@H](OC2OC=C(C(=O)O)C3CCC(C)(O)C23)O[C@H](CO)[C@@H](O)[C@@H]1O (stereo not given in full)"
  display.unit: "%"
  max response: 0.631
- compound: "CC(=O)O[C@H]1[C@H](Oc2ccccc2COC(=O)C2(O)C=CCCC2=O)O[C@H](CO)[C@@H](O)[C@@H]1O (stereo not given in full)"
  display.unit: "%"
  max response: 0.519
- compound: "C=C(C)[C@H]1C[C@@H](O)C(=C)CC[C@@H](O)C(=C)[C@@H](O)C1"
  display.unit: "%"
  max response: -1.51
- compound: "OC[C@H]1O[C@@H](Oc2ccc3c(c2)OC[C@H]2c4cc5c(cc4O[C@@H]32)OCO5)[C@H](O)[C@@H](O)[C@@H]1O"
  display.unit: "%"
  max response: 0.631
- compound: "CN1CCC(c2c[nH]c3ccc(NC(=O)c4ccc(F)cc4)cc23)CC1"
  display.unit: "%"
  max response: -0.678
- compound: "C[C@@H](OC(=O)/C=C/c1ccc(O)cc1)C1=C[C@]2(C=C[C@@H]3C(C(=O)O)=CO[C@@H](O[C@@H]4O[C@H](CO[C@@H]5O[C@H](CO)[C@@H](O)[C@H](O)[C@H]5O)[C@@H](O)[C@H](O)[C@H]4O)[C@@H]32)OC1=O"
  display.unit: "%"
  max response: 2.02
- compound: "C[C@@H]1CC[C@]2(C)C3(C)CC[C@@]2(OC3=O)[C@@]12C[C@H](c1ccoc1)OC2=O"
  display.unit: "%"
  max response: -0.649
- compound: "O=C(/C=C/c1ccc(O)c(O)c1)OCc1ccccc1O[C@@H]1O[C@H](CO)[C@@H](O)[C@H](O)[C@H]1O"
  display.unit: "%"
  max response: -4.16
- compound: "COc1cc(C(=O)OC[C@H]2O[C@H](O[C@@]3(CO)O[C@@H](CO)[C@H](O)[C@H]3O)[C@H](O)[C@@H](O)[C@@H]2O)ccc1O"
  display.unit: "%"
  max response: 0.778
- compound: "O=C(C1CC1)N1CC[C@@H](Cc2n[nH]c(=O)n2-c2ccc(-c3ccc4occc4c3)cc2)C1"
  display.unit: "%"
  max response: -10.7
- compound: "C[C@H](NCc1ccc(OCc2ccccc2F)cc1)C(N)=O"
  display.unit: "%"
  max response: 1.69
- compound: "COC1=Cc2c(nc3n(c2=O)C(C)C(=O)NC3(O)C(C)C)OC=C1 (stereo not given)"
  display.unit: "%"
  max response: 2.45
- compound: "CC[C@H]1OC(=O)[C@H](C)[C@@H](OC2C[C@@](C)(OC)[C@@H](O)[C@H](C)O2)[C@H](C)[C@@H](OC2O[C@H](C)C[C@H](NC)[C@H]2O)[C@](C)(O)C[C@@H](C)CN(C)[C@H](C)[C@@H](O)[C@]1(C)O (stereo not given in full)"
  display.unit: "%"
  max response: -0.0862
- compound: "CC(C)CNC(=O)/C=C/CCCCc1ccc2c(c1)OCO2"
  display.unit: "%"
  max response: -0.808
- compound: "CC(C)c1nc(N(C)S(C)(=O)=O)nc(-c2ccc(F)cc2)c1/C=C/[C@@H](O)C[C@@H](O)CC(=O)O"
  display.unit: "%"
  max response: 0.504
- compound: "Cn1ccnc1CCOC(c1cc2nccc(C(=O)O)c2[nH]1)c1ccccc1Cl (stereo not given)"
  display.unit: "%"
  max response: 4.24
- compound: "C=C1CC2C3(C)C(OC(C)=O)CC(=O)OC(C)(C)C3C(O)C(OC(C)=O)C2(C)C2C(=O)OC(C)C(=O)C12C (stereo not given)"
  display.unit: "%"
  max response: -3.76
